tested on: Calu-3; test: cell viability relative to DMSO; higher = less toxic; details: 72 h; 1000 nM
Counter-ions that a name gives are not always drawn.
Assignment: determine reported cell viability for the given molecules.
Answers are plain numbers, in %.

These recorded examples may help you get a feel for the data.
Ask: Which cell viability reading was recorded for the molecule `CN(C)Cc1cccc(N/C(=C2\C(=O)Nc3cc(C(N)=O)ccc32)c2ccccc2)c1` ?
Result: 95.6

Ask: Which cell viability reading was recorded for the molecule `CS(=O)(=O)c1ccc([C@@H](O)[C@@H](CO)NC(=O)C(Cl)Cl)cc1` ?
Result: 89.7

Ask: Which cell viability reading was recorded for the molecule `CCOC(=O)Nc1ccc2c(c1)N(C(=O)CCN1CCOCC1)c1ccccc1S2` ?
Result: 95.3

Ask: Which cell viability reading was recorded for the molecule `O=C1NC(=O)C(c2ccccc2)(c2ccccc2)N1` ?
Result: 93.5

Ask: Which cell viability reading was recorded for the molecule Cc1c(S(=O)(=O)O)oc2c1C(=O)C(=O)c1c-2ccc2c1CCCC2(C)C [sodium-tanshinone-II-A-sulfonate] ?
Result: 99.1

Ask: Which cell viability reading was recorded for the molecule `CNS(=O)(=O)Nc1nccc(Cc2c(C)c3ccc(Oc4ncccn4)cc3oc2=O)c1F` ?
Result: 50.1

Could you report cell viability for every entry in the following list?
1. Cc1ccc2c(-c3ccccc3)nc(=O)n(C(C)C)c2c1
2. O=C([O-])C(O)[C@H](O)[C@@H](O)[C@H](O)[C@H](O)CO.O=C([O-])C(O)[C@H](O)[C@@H](O)[C@H](O)[C@H](O)CO.[Ca+2] (some centres not stated) [calcium-gluceptate]
3. Cc1ccc2nc(NCCN)c3ncc(C)n3c2c1
4. C[N+]1(C)[C@@H]2C[C@@H](OC(=O)C(O)(c3cccs3)c3cccs3)C[C@H]1[C@@H]1O[C@@H]12
5. Cc1cc(OCc2nc(-c3ccccc3Cl)cs2)ccc1OCC(=O)O
6. CC1(C)CCC[C@]2(C)[C@H]3CC(=O)O[C@]3(C)CC[C@@H]12 [Sclareolide (Norambreinolide)]

Result:
1. 105
2. 94.2
3. 102
4. 95.2
5. 110
6. 107

Could you report cell viability for every entry in the following list?
1. CCN(CC)CCOc1ccc(Nc2ncc3cc(-c4c(Cl)cccc4Cl)c(=O)n(C)c3n2)cc1
2. CCN1CCC[C@H]1CNC(=O)c1c(OC)ccc(Br)c1OC [remoxipride]
3. Nc1nc(=O)[nH]cc1F
4. COC(=O)C(c1ccccc1)C1CCCCN1 (configuration not stated) [METHYLPHENIDATE HYDROCHLORIDE]
5. COC1(C[S@@+]([O-])c2ccccc2)CCN(CCc2c[nH]c3ccc(F)cc23)CC1

Result:
1: 49; 2: 94.3; 3: 91.1; 4: 105; 5: 101
